Test system: INS-1E rat beta cells, no cytokines, CellTiter-Glo ATP, 48 h
Test: cytokine-free beta-cell viability effect – INS-1E rat cells, ATP luminescence, cherry pick, counter-screen for beta-cell apoptosis protection project, dose response (AID 463229)
Property: AC50; scope: individual molecules

Please review the following examples before continuing.
{"Molecule": "Cc1ccc2nc(-c3ccc(NC(=O)c4cccnc4)cc3)oc2c1", "Target under test": "INS-1E rat beta cells, no cytokines, CellTiter-Glo ATP, 48 h", "Property name": "AC50", "Result": "7.8 µM"}
{"Molecule": "Cc1nc(C(=O)NNC(=O)c2c(-c3c(Cl)cccc3Cl)noc2C)cs1", "Target under test": "INS-1E rat beta cells, no cytokines, CellTiter-Glo ATP, 48 h", "Property name": "AC50", "Result": "19.9 µM"}
{"Molecule": "Cc1cc(/C=N/n2cnnc2)c(C)n1-c1ccc(OCc2ccccc2F)cc1", "Target under test": "INS-1E rat beta cells, no cytokines, CellTiter-Glo ATP, 48 h", "Property name": "AC50", "Result": "4.05 µM"}
{"Molecule": "Cc1cccc2sc(NNC(=O)c3ccc(S(=O)(=O)N4CC(C)CC(C)C4)cc3)nc12 (stereo unspecified)", "Target under test": "INS-1E rat beta cells, no cytokines, CellTiter-Glo ATP, 48 h", "Property name": "AC50", "Result": "6.52 µM"}
{"Molecule": "COc1ccccc1N1CCN(c2ncc(C(=O)N3CCN(c4cccc(Cl)c4)CC3)c3ccccc23)CC1", "Target under test": "INS-1E rat beta cells, no cytokines, CellTiter-Glo ATP, 48 h", "Property name": "AC50", "Result": "4.69 µM"}
{"Molecule": "Cc1ccc(C(=O)OCn2ncc(Cl)c(Cl)c2=O)cc1", "Target under test": "INS-1E rat beta cells, no cytokines, CellTiter-Glo ATP, 48 h", "Property name": "AC50", "Result": "7.77 µM"}

Problem: Supply AC50 value. Item: CCc1cc(SC#N)cc(C)c1NC(=O)CCl
Solution: 4.52 µM

Problem: Specify measured AC50 for O=C(c1cc(COc2cccc(C(F)(F)F)c2)on1)N1CCC(c2ccncc2)CC1 .
Solution: 7.14 µM

Problem: Read off the recorded AC50 for CCN1CCN(C(c2ccc(C(F)(F)F)cc2)c2ccc3cccnc3c2O)CC1 (stereo unspecified)
Solution: 4.72 µM

Problem: Find the measured AC50 of CN1/C(=C\C(=O)C[n+]2cccc(Br)c2)C(C)(C)c2ccccc21 and report it.
Solution: 5.88 µM

Problem: Indicate the recorded AC50 value for this molecule: Cc1cccc(Nc2nc(NCc3ccco3)c3ccccc3n2)c1
Solution: 8.03 µM

Problem: Quote AC50 reported for COc1ccccc1NC1=C(N2CCCCC2)C(=O)c2ccccc2C1=O please.
Solution: 2.21 µM

Problem: Let me know recorded AC50 for CC(C)CCCCCCNC(=S)Nc1ccc(S(=O)(=O)N2CCOCC2)cc1 , thanks.
Solution: 12.6 µM

Problem: Note down AC50 recorded for CC(C)CN(C(=O)COC(=O)C12CC3CC(CC(C3)C1)C2)c1c(N)n(Cc2ccccc2)c(=O)[nH]c1=O
Solution: 3.89 µM

Problem: # return recorded AC50 for input Cc1ccc(C[n+]2cccc(-c3ccccc3)c2)c(C)c1
Solution: 5.1 µM

Problem: Dear colleague, please send me the reported AC50 for CN(C)S(=O)(=O)c1ccc(Oc2ccc(S(=O)(=O)N(C)C)cc2)cc1 when you can.
Solution: 9.29 µM

Problem: Assign AC50 to the following record: O=S(=O)(Nc1cc(Sc2cccc3cccnc23)c(O)c2ccccc12)c1ccc(F)cc1
Solution: 3.9 µM

----------
Tested on: INS-1E rat beta cells, no cytokines, CellTiter-Glo ATP, 48 h
Test: cytokine-free beta-cell viability effect – INS-1E rat cells, ATP luminescence, cherry pick, counter-screen for beta-cell apoptosis protection project, dose response (AID 463229)
Property name: AC50

{"Compound": "O=C(Nc1ccc(-c2nc3ccccc3o2)cc1)c1ccc(N2CCOCC2)c([N+](=O)[O-])c1", "Property name": "AC50", "Result": "5.65 µM"}
{"Compound": "Cc1ccc(C(=O)C[n+]2cc(-c3ccc(C)cc3)n3c2CCCCC3)cc1", "Property name": "AC50", "Result": "1.4 µM"}
{"Compound": "Cc1cc(C(=O)N/N=C/c2cc(Br)ccc2OC(=O)c2ccccc2)n[nH]1", "Property name": "AC50", "Result": "7.44 µM"}
{"Compound": "CCCCCCCCCCOC(=O)C[N+](C)(C)C/C=C(/C)Cl", "Property name": "AC50", "Result": "16.7 µM"}
{"Compound": "Cc1ccc(C)c(-c2csc(NC(=O)C3=COCCO3)n2)c1", "Property name": "AC50", "Result": "7.67 µM"}
{"Compound": "C/C(=N/NC(=O)c1ccc(C(C)(C)C)cc1)c1ccccn1", "Property name": "AC50", "Result": "2.1 µM"}
{"Compound": "N#Cc1c(Cl)nsc1NC(=O)c1ccccc1", "Property name": "AC50", "Result": "8.12 µM"}
{"Compound": "COc1ccc(S(=O)(=O)Nc2ccc3oc(C)c(C(C)=O)c3c2)cc1", "Property name": "AC50", "Result": "12.3 µM"}

Now consider the entry below.
Problem: Specify AC50 for CCCCNC1=CC(=O)C(=O)c2ccccc21 and stop.
Solution: 7.75 µM

----------
Tested on: INS-1E rat beta cells, no cytokines, CellTiter-Glo ATP, 48 h
Experiment: cytokine-free beta-cell viability effect – INS-1E rat cells, ATP luminescence, cherry pick, counter-screen for beta-cell apoptosis protection project, dose response (AID 463229)
This section presents compounds with their documented AC50 values.

{"Compound": "O=C(N/N=C/c1sc2ccccc2c1O)c1ccccc1", "Result": "3.92 µM"}
{"Compound": "Cn1nc([N+](=O)[O-])nc1Sc1cccc2cccnc12", "Result": "7.81 µM"}
{"Compound": "Cc1ccc(NC(=S)N/N=C/c2ccc([N+](=O)[O-])s2)cc1", "Result": "6.79 µM"}
{"Compound": "C/C(=N\\NC(=O)c1nnn(-c2nonc2N)c1-c1ccccc1)c1ccccc1O", "Result": "2.17 µM"}
{"Compound": "Cc1cccc(/C=N/NC(=O)c2ccc3c(c2)OCCO3)c1O", "Result": "7.38 µM"}
{"Compound": "CCOc1ccc(S(=O)(=O)N(C)c2ccc(OCC(=O)Nc3nc4ccccc4s3)cc2)cc1", "Result": "7.9 µM"}
{"Compound": "c1ccc(-c2nc(NCc3ccco3)c3ccccc3n2)nc1", "Result": "8.46 µM"}
{"Compound": "COc1ccc(OC)c(NC(=O)CN(Cc2ccc(F)cc2)C2CCCCC2)c1", "Result": "4.49 µM"}

Now examine the next entry.
Problem: Please look at this compound and report its AC50: Cc1cc(-c2n[nH]c(=S)n2/N=C/C(Br)=C/c2ccccc2)n[nH]1
Solution: 15.6 µM

----------
Listed here: items and their measured AC50.
Tested on: INS-1E rat beta cells, no cytokines, CellTiter-Glo ATP, 48 h
Test: cytokine-free beta-cell viability effect – INS-1E rat cells, ATP luminescence, cherry pick, counter-screen for beta-cell apoptosis protection project, dose response (AID 463229)

A selection of reference data follows.
{"Compound": "COCCNc1nc2c(c(=O)n(C)c(=O)n2C)n1Cc1cccc(C(F)(F)F)c1", "Target under test": "INS-1E rat beta cells, no cytokines, CellTiter-Glo ATP, 48 h", "AC50": "12.1 µM"}
{"Compound": "CCc1ccc(OCC(=O)NC(NC(=S)Nc2ccc(C)cc2C)C(Cl)(Cl)Cl)cc1 (stereo not given)", "Target under test": "INS-1E rat beta cells, no cytokines, CellTiter-Glo ATP, 48 h", "AC50": "11.2 µM"}
{"Compound": "CC1=NNC(=O)/C1=C\\c1cn(-c2ccccc2)nc1-c1cccs1", "Target under test": "INS-1E rat beta cells, no cytokines, CellTiter-Glo ATP, 48 h", "AC50": "7.54 µM"}
{"Compound": "COc1cc2cc(C(=O)N3CCOCC3)cc(-c3ccc(C)cc3)c2cc1OC", "Target under test": "INS-1E rat beta cells, no cytokines, CellTiter-Glo ATP, 48 h", "AC50": "5.15 µM"}
{"Compound": "CCOc1cc(CNCCc2ccc(S(N)(=O)=O)cc2)ccc1OCc1ccc(Cl)cc1", "Target under test": "INS-1E rat beta cells, no cytokines, CellTiter-Glo ATP, 48 h", "AC50": "7.84 µM"}

Problem: State, in one line, measured AC50 of CCCCC(=O)NC(c1cccs1)c1cc(Cl)c2cccnc2c1O (stereo not given)
Solution: 5.89 µM

Problem: Read the entry CC1CC(=O)c2c(cc3c(-c4c(O)cc(O)c5c(O)c6c(cc45)OC(C)CC6=O)c(O)cc(O)c3c2O)O1 (stereo not given) and write its reported AC50.
Solution: 5.1 µM

Problem: For the compound Nc1nc(Cl)cc(N2CCC(c3cc(-c4ccc(Cl)cc4)n[nH]3)CC2)n1 , report AC50.
Solution: 5.56 µM

Problem: Let me know recorded AC50 for CCc1ccc2[nH]c(=O)c(C3C(C#N)=C(N)Oc4c3ccc3cccnc43)cc2c1 (stereo not given) , thanks.
Solution: 5.4 µM

Problem: Note down AC50 recorded for COc1cc([N+](=O)[O-])cc(/C=N/NC(=O)c2cc(-c3ccccc3)nc3ccccc23)c1O
Solution: 9.5 µM
